Assay: Solubility of compound (I) tosylate in various dissolution media with time
Assay type: physicochemical
Conditions: aqueous buffer, thermodynamic from solid; 0.2 M Phosphate buffer pH 6.5, 24 h, 37° C.
Where a name gives a salt, the structure may show the parent alone.
QUANTITY_MEASURED: solubility at 24 h (µM)

COMPOUND	QUANTITY_MEASURED	QUANTITATIVE_RESULT
Cc1c(-c2ccnn2C)cc(C(=O)NCc2ccc(S(C)(=O)=O)cn2)c(=O)n1-c1cccc(C(F)(F)F)c1 [compound (I) tosylate Form A, 4-methylbenzenesulfonate]	solubility at 24 h	10.1

====

Assay: Solubility of compound (I) tosylate in various dissolution media with time
Type: physicochemical
Conditions: aqueous buffer, thermodynamic from solid; 0.2 M Phosphate buffer pH 6.5, 1 h, 37° C.
Structures can show the parent of a compound that is named as a salt.

MOLECULE	solubility at 1 h (µM)
Cc1c(-c2ccnn2C)cc(C(=O)NCc2ccc(S(C)(=O)=O)cn2)c(=O)n1-c1cccc(C(F)(F)F)c1 [compound (I) tosylate Form A, 4-methylbenzenesulfonate]	416
